Every entry's value here was drawn from PubChem BioAssay (NCATS).

assay: qHTS Screen of the MIPE 4.0 Collection Against Ewings Sarcoma (EW8) (AID 1259255); conditions: EW8 Ewing sarcoma viability, CellTiter-Glo, 48 h; series mostly up to 45.8 µM; note: nearly all actives have a fitted effect of over 35% in size
Inconclusive results are not listed. Calls of active or inactive are those of the source. Calls come from the whole dose curve; as a rule, active = well fitted inhibition curve with a large enough effect; inconclusive = small, poorly fitted or top-dose-only effect; inactive = no such curve, though single readings can be large or run the other way.
Outcomes: active, inactive

compound | label_class
Cn1cnc2c(F)c(Nc3ccc(Br)cc3Cl)c(C(=O)NOCCO)cc21 | active
C[C@H](NC(=O)Cc1cc(F)cc(F)c1)C(=O)N[C@@H]1C(=O)N(C)c2ccccc2-c2ccccc21 | active
CC1(C)CNc2cc(NC(=O)c3cccnc3NCc3ccncc3)ccc21 | active
CCC(C)n1ncn(-c2ccc(N3CCN(c4ccc(OC[C@H]5CO[C@](Cn6cncn6)(c6ccc(Cl)cc6Cl)O5)cc4)CC3)cc2)c1=O (stereo partly specified) | inactive
COc1cc2nccc(Oc3ccc(NC(=O)NC4CC4)c(Cl)c3)c2cc1C(N)=O | active
CCc1ccc(CCOc2ccc(CC3SC(=O)NC3=O)cc2)nc1 (stereo unspecified) | inactive
Cc1ccc(NC(=O)c2cccc(C(C)(C)C#N)c2)cc1Nc1ccc2ncn(C)c(=O)c2c1 | active
NC(=O)c1ccc(-c2nc(-c3ccc4c(c3)OCO4)c(-c3ccccn3)[nH]2)cc1 | active
C[C@@H]1CN(Cc2ccc(F)cc2)[C@@H](C)CN1C(=O)c1cc2c(C(=O)C(=O)N(C)C)cn(C)c2cc1Cl | active
CN(C)c1ccc(C2Nc3ccc4ccccc4c3C3=C2C(=O)CC(C)(C)C3)cc1Br (stereo unspecified) | inactive
O=C1CCC(N2C(=O)c3ccccc3C2=O)C(=O)N1 (stereo unspecified) | inactive

---

Assay: qHTS of pediatric cancer cell lines to identify multiple opportunities for drug repurposing: Confirmatory screen for Rh30 cells (AID 1347126); note: nearly all actives have a fitted effect of over 55% in size
Conditions: Rh30 rhabdomyosarcoma cell viability; series mostly up to 45.9 µM
Protocol: Drug repurposing or repositioning has been offered as a strategy for drug development in oncology programs. […] [1] Shen, M et al. Quantitative high-throughput phenotypic screening of pediatric cancer cell lines identifies multiple opportunities for drug repurposing. […] Cells were assayed in growth media at a density of 500-1,000 cells/well. […] After a 15 min incubation at room temperature, samples were analyzed for luminescence intensity using a ViewLux High-throughput CCD imager equipped with clear filters.
Results filed as inconclusive are left out. The source made the active and inactive calls. Calls follow the shape of the dose curve; as a rule, active = well fitted cell-killing curve with a large enough effect; inconclusive = small, poorly fitted or top-dose-only effect, or effect the other way; inactive = no such curve, though single readings can be large or run the other way.
Outcomes: YES = active, NO = inactive

compound | label_class
O=C(c1cc(Cc2n[nH]c(=O)c3ccccc23)ccc1F)N1CCN(C(=O)C2CC2)CC1 | NO
COc1ccc(-c2ccc3c(N4CCOCC4)nc(N4C[C@@H](C)O[C@@H](C)C4)nc3n2)cc1CO | YES
Nc1nc2c(ncn2COCCO)c(=O)[nH]1 | NO
Cn1cnc2c(F)c(Nc3ccc(Br)cc3Cl)c(C(=O)NOCCO)cc21 | NO
CCC(C)n1ncn(-c2ccc(N3CCN(c4ccc(OC[C@H]5CO[C@](Cn6cncn6)(c6ccc(Cl)cc6Cl)O5)cc4)CC3)cc2)c1=O (stereo not given in full) | NO
Cc1c(CN2CCN(C(=O)C(C)C)CC2)sc2c(N3CCOCC3)nc(-c3cnc(N)nc3)nc12 | YES
CNCc1ccc(-c2[nH]c3cc(F)cc4c3c2CCNC4=O)cc1 | NO
CCOc1ccn(-c2ccc(F)cc2)c(=O)c1C(=O)Nc1ccc(Oc2ccnc(N)c2Cl)c(F)c1 | NO
NCCCC(N)(C(=O)O)C(F)F (stereo not given) | NO
Cc1cn[nH]c1 | NO

---

test: Quantitative High-Throughput drug screen in 47 multiple myeloma cell lines against the NCATS MIPE library collection: NCIH929_DSMZ cell viability assay (AID 1918978); settings: NCI-H929 myeloma viability, CellTiter-Glo ATP, 48 h; series mostly up to 45.8 µM; note: nearly all actives have a fitted effect of over 35% in size
Results filed as inconclusive are left out. The source made the active and inactive calls. Calls come from the whole dose curve; as a rule, active = well fitted cell-killing curve with a large enough effect; inconclusive = small, poorly fitted or top-dose-only effect; inactive = no such curve, though single readings can be large or run the other way.
Outcomes: t for active, f for inactive

molecule | label_class
Cc1cccc(-c2nn(C(=S)Nc3ccccc3)cc2-c2ccnc3ccccc23)n1 | t
CC(C)OC(=O)C1=CN(C(=O)c2ccc(F)c(F)c2)CC(C)(C)c2c1[nH]c1ccccc21 | f
CCc1ccc(CCOc2ccc(CC3SC(=O)NC3=O)cc2)nc1 (configuration not stated) | f
O=C(Nc1ccc(F)c(C(F)(F)F)c1)Nc1nnc(-c2ccncc2)s1 | t
Cc1oncc1C(=O)Nc1ccc(C(F)(F)F)cc1 | t
CCN(CC)CCCC(C)Nc1nc(C)cc(Nc2ccc3nc(C)cc(N)c3c2)n1 (configuration not stated) | t
Cc1c(CN2CCN(C(=O)C(C)C)CC2)sc2c(N3CCOCC3)nc(-c3cnc(N)nc3)nc12 | t
Nc1nc2[nH]cc(CCc3ccc(C(=O)N[C@@H](CCC(=O)O)C(=O)O)cc3)c2c(=O)[nH]1 | f
COc1ccc(CCN2CCN(CCCc3ccccc3)CC2)cc1OC | f
CCc1cc(Nc2nccc(-c3c(-c4ccc(OC)c(C(=O)Nc5c(F)cccc5F)c4)nc4ccccn34)n2)c(OC)cc1N1CCC(N2CCN(S(C)(=O)=O)CC2)CC1 | t
Cc1ccccc1C(C(=O)NC1CCCC1)N(C(=O)Cn1cnc2ccccc21)c1cccc(F)c1 (configuration not stated) | t
CC(C)C[C@H](NC(=O)[C@@H](O)[C@H](N)Cc1ccccc1)C(=O)O | t
Nc1nc2c(ncn2COCCO)c(=O)[nH]1 | f
O=S(=O)(N=Cc1c(O)ccc2ccccc12)c1cccs1 | t
CNC(=O)c1ccc(C)c(-n2c(C)cc(OCc3ccc(F)cc3F)c(Br)c2=O)c1 | t
COc1cc(Nc2ncc3c(n2)-c2ccc(Cl)cc2C(c2c(F)cccc2OC)=NC3)ccc1C(=O)O | f
O=c1ncn2nc(Sc3ccc(F)cc3F)ccc2c1-c1c(Cl)cccc1Cl | t

---

assay: qHTS of pediatric cancer cell lines to identify multiple opportunities for drug repurposing: Confirmatory screen for OHS-50 cells (AID 1347128); conditions: OHS-50 osteosarcoma cells viability; series mostly up to 45.9 µM;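 note: compound exposure lasted 48 h at 37 degrees C; nearly all actives have a fitted effect of over 55% in size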
Records with an inconclusive call do not appear. Calls of active or inactive are those of the source. Calls follow the shape of the dose curve; as a rule, active = well fitted cell-killing curve with a large enough effect; inconclusive = small, poorly fitted or top-dose-only effect, or effect the other way; inactive = no such curve, though single readings can be large or run the other way.
Outcomes: yes (active), no (inactive)

compound | label_class
Cc1oncc1C(=O)Nc1ccc(C(F)(F)F)cc1 | no
C[C@]1(c2nc3c(C(N)=O)cccc3[nH]2)CCCN1 | no
COc1cccc2cc(-c3nc(C4CCC(C(=O)O)CC4)n4ncnc(N)c34)[nH]c12 (configuration not stated) | no
COc1ccc(-c2oc3cc(OC)ccc3c2C(=O)c2ccc(C#N)cc2)cc1 | no
Cc1cn[nH]c1 | no
NC(N)=NC(=O)c1nc(Cl)c(N)nc1N | no
O=C(c1cc(Cc2n[nH]c(=O)c3ccccc23)ccc1F)N1CCN(C(=O)C2CC2)CC1 | no
CN1CCN(CCCN2c3ccccc3Sc3ccc(C(F)(F)F)cc32)CC1 | yes
CCN(CC)CCCC(C)Nc1ccnc2cc(Cl)ccc12 (configuration not stated) | no
CC(C=CC1=C(C)CCCC1(C)C)=CC=CC(C)=CC(=O)O | no
O=NN(CCCl)C(=O)NCCCl | no
Cc1c(CN2CCN(C(=O)C(C)C)CC2)sc2c(N3CCOCC3)nc(-c3cnc(N)nc3)nc12 | yes
COc1ccc(-c2ccc3c(N4CCOC[C@H]4C)nc(N4CCOC[C@H]4C)nc3n2)cc1CO | yes
Oc1cccc(-c2nc(N3CCOCC3)c3oc4ncccc4c3n2)c1 | yes
Nc1nc2[nH]cc(CCc3ccc(C(=O)N[C@@H](CCC(=O)O)C(=O)O)cc3)c2c(=O)[nH]1 | no
Nc1nc2ccc(OC(F)(F)F)cc2s1 | yes
O=C(NOC[C@H](O)CO)c1ccc(F)c(F)c1Nc1ccc(I)cc1F | no

---

test: Cell Proliferation Assay Versus the ED40515 IL2 Dependent ATL cell lines (AID 1053195); conditions: ED40515 IL2-dependent ATL cells
Active and inactive are the calls of the source. The call rests on the fitted dose curve.

structure_smiles_string | Potency
O=S(=O)(N=Cc1c(O)ccc2ccccc12)c1cccs1 | 20.9 µM (active)
CC(C)(Sc1ccc(CCN(CCCCC2CCCCC2)C(=O)NC2CCCCC2)cc1)C(=O)O | 18.7 µM (active)
CN(C)c1ccc(Nc2nc(N)n(C(=O)c3c(F)cccc3F)n2)cc1 | 0.743 µM (active)
CC[C@@H](C)[C@H](NC(=O)[C@H](CC1CCCCC1)NC(=O)c1ccno1)C(=O)N1CCC2(CCc3ccccc32)CC1 | 2.64 µM (active)
Nc1nc2[nH]cc(CCc3ccc(C(=O)N[C@@H](CCC(=O)O)C(=O)O)cc3)c2c(=O)[nH]1 | 0.0296 µM (active)
COc1ccc2c3n(c(=NC(=O)c4cccnc4)nc2c1OC)CCN3 | 4.18 µM (active)
CCCc1nn(C)c2c(=O)[nH]c(-c3cc(S(=O)(=O)N4CCN(C)CC4)ccc3OCC)nc12 | 37.2 µM (active)
COc1ccc(-c2c(-c3ccc(O)cc3O)n[nH]c2C)cc1 | 2.09 µM (active)
COc1ccccc1[C@H](c1cccc2ccccc12)[C@@](C)(C#N)C(=O)N1CCC(c2cccc(C(F)(F)F)c2)CC1 | 2.64 µM (active)
